# Test system: Aspergillus niger
# test.description: In vitro antifungal activity at a minimum inhibitory concentration (~100 ug/mL) against Aspergillus niger; Not affected
# Assay type: functional
# protocol.conditions: Aspergillus niger; read-out: MIC
Each item that follows carries a reported MIC.

Worked examples, 2 molecules total:
[[record]]
given_smiles = "CCCCOC(=O)N(O)[C@H]1C[C@@H]2CC[C@@H](C)[C@@](O)(O2)C(=O)C(=O)N2CCCC[C@H]2C(=O)O[C@H]([C@H](C)C[C@@H]2CC[C@@H](O)[C@H](OC)C2)CC(=O)[C@H](C)/C=C(\\C)[C@@H](O)[C@@H](OC)C(=O)[C@H](C)C[C@H](C)/C=C/C=C/C=C/1C"
readout_value = "~100 µg/mL"

[[record]]
given_smiles = "CO[C@@H]1C[C@H](C[C@@H](C)[C@@H]2CC(=O)[C@H](C)/C=C(\\C)[C@@H](O)[C@@H](OC)C(=O)[C@H](C)C[C@H](C)/C=C/C=C/C=C(\\C)[C@@H](N(OC)C(=O)N(C)C)C[C@@H]3CC[C@@H](C)[C@@](O)(O3)C(=O)C(=O)N3CCCC[C@H]3C(=O)O2)CC[C@H]1O"
readout_value = "~100 µg/mL"


Here is the next item to consider.
May I ask what MIC has been recorded for CO[C@@H]1C[C@H](C[C@@H](C)[C@@H]2CC(=O)[C@H](C)/C=C(\C)[C@@H](O)[C@@H](OC)C(=O)[C@H](C)C[C@H](C)/C=C/C=C/C=C(\C)[C@@H](N(O)C(N)=O)C[C@@H]3CC[C@@H](C)[C@@](O)(O3)C(=O)C(=O)N3CCCC[C@H]3C(=O)O2)CC[C@H]1O ?
~100 µg/mL
